target: Solute carrier family 2, facilitated glucose transporter member 1 (Homo sapiens) (UniProt P11166); assay: ST_JUDE_LEISH: Cytotoxicity at 2uM final concentration against transgenic Leishmania Mexicana promastigotes LmGLUT1 that are glucose transport deficient and complemented with the human glucose transporter GLUT1. Activity is measured by DNA content using SYBR green in vitro; type: functional
Sequence (P11166 whole entry): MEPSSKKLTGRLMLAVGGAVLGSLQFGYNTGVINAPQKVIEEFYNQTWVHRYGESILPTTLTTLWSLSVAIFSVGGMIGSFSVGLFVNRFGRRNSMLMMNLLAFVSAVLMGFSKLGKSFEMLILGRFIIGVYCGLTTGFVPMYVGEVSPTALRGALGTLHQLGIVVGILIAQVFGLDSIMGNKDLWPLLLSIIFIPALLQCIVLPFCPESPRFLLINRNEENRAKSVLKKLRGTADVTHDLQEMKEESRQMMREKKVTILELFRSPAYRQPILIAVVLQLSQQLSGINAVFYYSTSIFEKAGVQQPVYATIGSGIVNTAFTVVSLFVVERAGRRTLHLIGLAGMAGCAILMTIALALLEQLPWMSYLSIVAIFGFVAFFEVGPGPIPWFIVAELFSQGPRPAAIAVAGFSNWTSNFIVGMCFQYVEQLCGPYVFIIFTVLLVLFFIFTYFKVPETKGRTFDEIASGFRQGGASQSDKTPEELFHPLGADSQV
Quick reference: inhibition of the listed items.
Lab book: enter the figure in %, no units written.

Q: Please give the measured inhibition for this compound: CN(C)C1CCN(Cc2ccc(N3CCN(Cc4cccc5[nH]ccc45)CC3)nc2)CC1
Ans: 2.41

Q: Same read-out for CC[C@H](C)CNC(=O)c1cncc(-c2cccc(CNC3Cc4ccccc4C3)c2)c1 ?
Ans: -0.1

Q: Same read-out for O=C(Nc1ccc(Oc2ccccc2)cc1)N[C@@H](Cc1ccc(O)cc1)C(=O)NC1CCN(Cc2ccc(O)c([N+](=O)[O-])c2)C1 (some centres undefined) ?
Ans: 2.19

Next:
Q: Please give the measured inhibition for this compound: Cc1cc(N(C)C2CCN(C)C2)nc(Nc2ccccc2Cl)n1 (centres undefined)
Ans: 1.12

Q: Same read-out for O=C(Nc1cccc(C(F)(F)F)c1)N1CCOC(CCN2CCC3(CCc4ccccc43)CC2)(c2ccc(Cl)c(Cl)c2)C1 (centres undefined) ?
Ans: 5.08

Q: Same read-out for CCOCCCn1c(=N)c(C(=O)NCc2ccc(OC)cc2)cc2c(=O)n3cccc(C)c3nc21 ?
Ans: 3.85

Q: Same read-out for NC(=O)C1CCN(Cc2cccc(-c3cccc(-c4nc5cc(C(F)(F)F)ccc5[nH]4)c3)c2)CC1 ?
Ans: 13.1

Q: Same read-out for O=C(Nc1ccc2c(c1)CCNCC2)c1ccc(-c2ccc(Cl)cc2)cc1 ?
Ans: 58.3

Q: Same read-out for O=C(Nc1cccc(CN2CCCN(Cc3ccc(O)cc3)CC2)c1)c1cccc(Cl)c1 ?
Ans: 12.2

* * *

target: Solute carrier family 2, facilitated glucose transporter member 1 (Homo sapiens); assay: ST_JUDE_LEISH: Cytotoxicity at 2uM final concentration against transgenic Leishmania Mexicana promastigotes LmGLUT1 that are glucose transport deficient and complemented with the human glucose transporter GLUT1. Activity is measured by DNA content using SYBR green in vitro; format: functional
recorded.endpoint: inhibition (%)
Lab book: enter the figure in %, no units written.

Sample answers from the record:
Q: Give inhibition (Solute carrier family 2, facilitated glucose transporter member 1 (Homo sapiens)) of the following compound: CC(=O)Nc1ccc(CN(Cc2ccc(OC(C)(C)C)cc2)Cc2ccc3c(c2)OCCO3)cc1
Ans: 7.25

Q: Same read-out for CC1CCN(c2nc(C(=O)Nc3ccc(F)cc3C(F)(F)F)c(C(C)C)s2)CC1 ?
Ans: 1.3

Q: Same read-out for CN1CCN(CCCN(Cc2cccc(-c3cccc(CNC4CCCC4)c3)c2)C(=O)/C=C/c2ccccc2)CC1 ?
Ans: -1.1

Q: Same read-out for CCc1cc2c3c(N)nc(N)nc3ccc2n1C(C)CC (centres undefined) ?
Ans: 85.2

Next:
Q: Give inhibition (Solute carrier family 2, facilitated glucose transporter member 1 (Homo sapiens)) of the following compound: Cc1cccc2nc(-c3cccc(-c4cccc(NC(=O)Nc5cccc(C#N)c5)c4)c3)[nH]c12
Ans: 11.2

Q: Same read-out for COc1cc(N(Cc2ccccc2C)S(=O)(=O)Cc2ccccc2[N+](=O)[O-])c(OC)cc1Cl ?
Ans: 3.26

Q: Same read-out for CN(C)CCNc1ncnc2c1[nH]c1ccc(Br)cc12 ?
Ans: 1.62

Q: Same read-out for O=C(/C=C/c1ccc(Cl)c(Cl)c1)NC1CCN(Cc2ccc(O)cc2)C1 (centres undefined) ?
Ans: 1.46

Q: Same read-out for COc1ccc(Nc2ncc3c(-c4cccc(NC(=O)Cc5cccc(O)c5)c4)c[nH]c3n2)cc1OC ?
Ans: -1.87

* * *

molecular target: Solute carrier family 2, facilitated glucose transporter member 1 (Homo sapiens) (UniProt P11166); test: ST_JUDE_LEISH: Cytotoxicity at 2uM final concentration against transgenic Leishmania Mexicana promastigotes LmGLUT1 that are glucose transport deficient and complemented with the human glucose transporter GLUT1. Activity is measured by DNA content using SYBR green in vitro; format: functional
Cut-off 4% on inhibition, inclusive. At or above means yes; below means no.

Check out these entries, answers already filled in.
Q: Check this compound for inhibition at or above 4%: O=C(Nc1ccc(Cl)cc1C(=O)Nc1ccncc1)c1ccc(Cl)cc1Cl
Ans: yes

Q: Same read-out for O=C1c2ccc([N+](=O)[O-])cc2C(=O)N1c1ccc2[nH]ncc2c1 ?
Ans: no

Q: Same read-out for COc1cccc(C(=O)N2CCN(Cc3cccc(NC(=O)c4cccs4)c3)CC2)c1 ?
Ans: no

Q: Same read-out for COc1cc(C(C)C)ccc1C1CCN(CCCCNC(=O)c2ccc(NC(=O)c3ccc(Cl)cc3)cc2)CC1 ?
Ans: yes

Next:
Q: Check this compound for inhibition at or above 4%: CCn1c(-c2nonc2N)nc2cnc(Oc3cccc(NC(=O)c4ccc(OCCN5CCCCC5)cc4)c3)cc21
Ans: yes

* * *

Quick reference: inhibition of the listed items.
molecular target: Solute carrier family 2, facilitated glucose transporter member 1 (Homo sapiens) (UniProt P11166); assay: ST_JUDE_LEISH: Cytotoxicity at 2uM final concentration against transgenic Leishmania Mexicana promastigotes LmGLUT1 that are glucose transport deficient and complemented with the human glucose transporter GLUT1. Activity is measured by DNA content using SYBR green in vitro; assay type: functional
Lab book: enter the figure in %, no units written.

Sample answers from the record:
Q: Please give the measured inhibition for this molecule: Cc1ccnc(NC(c2cccc(OCc3ccccc3)c2)c2ccc3cccnc3c2O)c1 (centres undefined)
Ans: 0.07

Q: Same read-out for COc1cccc(-c2cc(C(F)(F)F)n3ncc(C(=O)Nc4cc(Cl)ccc4O)c3n2)c1 ?
Ans: 0.65

Next:
Q: Please give the measured inhibition for this molecule: COc1ccc(NC(=O)/C=C/c2ccc(Cl)c(C(F)(F)F)c2)cc1OCCN(C(C)C)C(C)C
Ans: 11.7

Q: Same read-out for COc1cc(NC(=O)/C=C/c2ccccc2OC(F)(F)F)cc(OCCN2CCC(O)(c3ccccc3)CC2)c1 ?
Ans: 7.57

Q: Same read-out for O=C(/C=C/c1ccc(Cl)c(Cl)c1)NCCCCCN1CCC(NC(=O)NC2CCCCCC2)CC1 ?
Ans: -0.58

Q: Same read-out for COc1ccc(-c2ccc3c(-c4cccc(S(C)(=O)=O)c4)cnc(N)c3c2)cc1 ?
Ans: 0.83

Q: Same read-out for CC(C)(NCc1ncc[nH]1)c1nc(-c2ccc(Cl)c(O)c2)c(-c2ccncc2)[nH]1 ?
Ans: 2.76

Q: Same read-out for OC1CCCN(Cc2cccc(-c3ccc(-c4nc5ccccc5[nH]4)cc3)c2)C1 (centres undefined) ?
Ans: 3.91

Q: Same read-out for N#Cc1ccc(N(CCOc2ccc3c(c2)CCC(=O)N3)Cc2ccccc2C(F)(F)F)cc1C(F)(F)F ?
Ans: 7.14

Q: Same read-out for Cc1ccc(-n2cc(CNCCCn3ccnc3)c(-c3cccc(C)c3)n2)cc1 ?
Ans: 4.3

Q: Same read-out for COc1cc(CN2CCC(CO)(Cc3cccc(C(F)(F)F)c3)CC2)c(Cl)cc1O ?
Ans: 0.06

Q: Same read-out for CCc1ccc(S(=O)(=O)Nc2ccc(CCN3CCC(N4CCCCC4)CC3)cc2)cc1 ?
Ans: 13.9

* * *

biological target: Glucose transporter (Leishmania mexicana) (UniProt O61059); assay: ST_JUDE_LEISH: Cytotoxicity at 2uM final concentration against transgenic Leishmania Mexicana promastigotes LmGT2 that are glucose transport deficient and complemented with the L. Mexicana glucose transporter 2. Activity is measured by DNA content using SYBR green in vitro; format: functional
Quick reference: inhibition of the listed items.
Lab book: enter the figure in %, no units written.

Sample answers from the record:
Q: Give inhibition (Glucose transporter (Leishmania mexicana) (UniProt O61059)) of the following molecule: COc1cc(OC)c2c(C)cc(NCCCn3ccnc3)nc2c1
Ans: 0.88

Q: Same read-out for Cn1cncc1C(=O)Nc1ccc(-c2cccc(-c3nc4cc(C(F)(F)F)ccc4[nH]3)c2)cc1 ?
Ans: 2.32

Q: Same read-out for COc1cc2cc(C(=O)Nc3ccccc3)c(N)nc2cc1OC ?
Ans: 0.18

Next:
Q: Give inhibition (Glucose transporter (Leishmania mexicana) (UniProt O61059)) of the following molecule: O=S(=O)(c1ccc(OCc2ccc(Cl)cc2)cc1)c1cc2c(c(-c3ccc(F)cc3)c1)CCN(CC1CC1)CC2
Ans: -0.48

* * *

target: Glucose transporter (Leishmania mexicana) (UniProt O61059); assay: ST_JUDE_LEISH: Cytotoxicity at 2uM final concentration against transgenic Leishmania Mexicana promastigotes LmGT2 that are glucose transport deficient and complemented with the L. Mexicana glucose transporter 2. Activity is measured by DNA content using SYBR green in vitro; format: functional
recorded.endpoint: inhibition (%)
Lab book: enter the figure in %, no units written.

Sample answers from the record:
Q: Please give the measured inhibition for this compound: CCc1cc(NC2CCN(C)CC2)nc(Nc2cccc(OC)c2)n1
Ans: 6.53

Q: Same read-out for CCOC(=O)C(NC(=O)c1ccc([N+](=O)[O-])o1)C(C)C (stereo not given) ?
Ans: -2.33

Q: Same read-out for CCc1ccc(C2CCN(CCCCNC(=O)c3ccc(NC(=O)c4ccc(Cl)cc4)cc3)CC2)c(OCCO)c1 ?
Ans: 1.61

Q: Same read-out for CCN(CC)CCCOc1ccc(Nc2nccc(-c3c(-c4cccc(NC(=O)c5c(F)cccc5F)c4)nn4ccccc34)n2)cc1F ?
Ans: 10.5

Q: Same read-out for CC1CCC(C(C)C)C(OC(=O)CSc2nnc3c(n2)[nH]c2ccccc23)C1 (stereo not given) ?
Ans: -0.42

Next:
Q: Please give the measured inhibition for this compound: O=C(Nc1ccc(F)c(C(F)(F)F)c1)N[C@H]1CCN(CCCCCNC(=O)C2CC2c2ccc(Cl)c(Cl)c2)C1 (stereo not given in full)
Ans: -2.52

Q: Same read-out for O=C(CSc1nc2ccccc2c(=O)n1CC1CCCO1)Nc1cc(C(F)(F)F)ccc1Cl (stereo not given) ?
Ans: 6.14

Q: Same read-out for Cc1cccc2nc(-c3cccc(-c4ccc(NC(=O)c5cccnc5)cc4)c3)[nH]c12 ?
Ans: 2.31

Q: Same read-out for O=C(NC1CCC(N2CCC(O)(c3ccc(F)cc3)CC2)CC1)c1cc2ccccc2[nH]1 (stereo not given) ?
Ans: -0.31

Q: Same read-out for Nc1cc(-c2ccc(Br)cc2O)nc2ccccc12 ?
Ans: 2.06

Q: Same read-out for Cc1ccc(NC(=O)c2ccc(CN3CCCN(CC4CCCCC4)CC3)cc2)cc1F ?
Ans: 11.2

Q: Same read-out for O=c1cc(NCCCNCc2cc(Br)ccc2F)[nH]c2ccccc12 ?
Ans: -6.76

Q: Same read-out for COC(=O)c1cccc(NC(=O)NC2CCN(c3ccnc(Nc4ccc(F)cc4)n3)C2)c1 (stereo not given) ?
Ans: -0.55

The measured values listed here are drawn from ChEMBL document CHEMBL3433997.
